Source of measurements: patent US20130053430A1

# Tested on: human CETP mRNA
# ASSAY INFO: Antisense inhibition of human CETP mRNA in primary hepatocytes from huCETP transgenic mice (Example 4)
# Type: cell-based, mouse
# CONDITION DETAILS: 100 nM, cytofectin, ~24 hours
Strand notation (5' to 3'): a small letter for the sugar, then the base; units joined by * are phosphorothioate-linked, units joined directly phosphodiester-linked; [ ] holds rarer units or linkages, { } end groups; capitals alone tell only the bases. e = 2'-O-(2-methoxyethyl) (MOE); [5mC] = 5-methylcytosine; d = 2'-deoxy (DNA)
PROPERTY MEASURED: Percent inhibition of human CETP mRNA (%)
// note: answer is a bare numeric in %

Measured Percent inhibition of human CETP mRNA of ISIS 349468: 5-10-5 MOE gapmer TCAATACCCAGCCACCAGGC (eT*e[5mC]*eA*eA*eT*dA*d[5mC]*d[5mC]*d[5mC]*dA*dG*d[5mC]*d[5mC]*dA*d[5mC]*e[5mC]*eA*eG*eG*e[5mC]) : 53

Just so you know, measured Percent inhibition of human CETP mRNA for ISIS 349502: 5-10-5 MOE gapmer GAAGCTCTGGATGGACTCGG (eG*eA*eA*eG*e[5mC]*dT*d[5mC]*dT*dG*dG*dA*dT*dG*dG*dA*e[5mC]*eT*e[5mC]*eG*eG) came out at 49

So for ISIS 349506: 5-10-5 MOE gapmer CGCCTTTGCTGTTCATGAGG (e[5mC]*eG*e[5mC]*e[5mC]*eT*dT*dT*dG*d[5mC]*dT*dG*dT*dT*d[5mC]*dA*eT*eG*eA*eG*eG) , the logged Percent inhibition of human CETP mRNA turned out to be 95

Lab book: Percent inhibition of human CETP mRNA of ISIS 349493: 5-10-5 MOE gapmer TGTTTTGGCAGGAGATCTTG (eT*eG*eT*eT*eT*dT*dG*dG*d[5mC]*dA*dG*dG*dA*dG*dA*eT*e[5mC]*eT*eT*eG) noted as 51

According to the records, this substance ISIS 349460: 5-10-5 MOE gapmer GCATCATGGCCTTCTCGCCC (eG*e[5mC]*eA*eT*e[5mC]*dA*dT*dG*dG*d[5mC]*d[5mC]*dT*dT*d[5mC]*dT*e[5mC]*eG*e[5mC]*e[5mC]*e[5mC]) displays Percent inhibition of human CETP mRNA of 67

response.value for ISIS 349517: 5-10-5 MOE gapmer CAGCACTTTAATGCCAGTGG (sugars from the 5' end e5 d10 e5, backbone and methylation of C not given here) (field: Percent inhibition of human CETP mRNA) = 85

Data point: ISIS 349512: 5-10-5 MOE gapmer TTGCCTTCTGCTACAAGCCC (sugars from the 5' end e5 d10 e5, backbone and methylation of C not given here) ; Percent inhibition of human CETP mRNA = 86

Reported Percent inhibition of human CETP mRNA of ISIS 349501: 5-10-5 MOE gapmer GCTGCTCTCAGTCAAGTTGG (eG*e[5mC]*eT*eG*e[5mC]*dT*d[5mC]*dT*d[5mC]*dA*dG*dT*d[5mC]*dA*dA*eG*eT*eT*eG*eG) : 54

ISIS 349456: 5-10-5 MOE gapmer TCGTGGTTCAACACCAGGAG (eT*e[5mC]*eG*eT*eG*dG*dT*dT*d[5mC]*dA*dA*d[5mC]*dA*d[5mC]*d[5mC]*eA*eG*eG*eA*eG) yielded Percent inhibition of human CETP mRNA of 74

So for ISIS 349486: 5-10-5 MOE gapmer GAAAGCTACCTTGGCCAGCG (eG*eA*eA*eA*eG*d[5mC]*dT*dA*d[5mC]*d[5mC]*dT*dT*dG*dG*d[5mC]*e[5mC]*eA*eG*e[5mC]*eG) , the logged Percent inhibition of human CETP mRNA turned out to be 72

Record ISIS 349508: 5-10-5 MOE gapmer TCTCGAGTGATAATCTCAGG (eT*e[5mC]*eT*e[5mC]*eG*dA*dG*dT*dG*dA*dT*dA*dA*dT*d[5mC]*eT*e[5mC]*eA*eG*eG) . Reported Percent inhibition of human CETP mRNA: 76

Field Percent inhibition of human CETP mRNA (entry ISIS 349451: 5-10-5 MOE gapmer GCAGCCAGCATGGTTATCAG (eG*e[5mC]*eA*eG*e[5mC]*d[5mC]*dA*dG*d[5mC]*dA*dT*dG*dG*dT*dT*eA*eT*e[5mC]*eA*eG) ) reads 42

Looking up ISIS 349474: 5-10-5 MOE gapmer CGCTCCCCTTGGAGATGCAG (e[5mC]*eG*e[5mC]*eT*e[5mC]*d[5mC]*d[5mC]*d[5mC]*dT*dT*dG*dG*dA*dG*dA*eT*eG*e[5mC]*eA*eG) , I see its Percent inhibition of human CETP mRNA listed as 64

For record ISIS 349503: 5-10-5 MOE gapmer GCGGTGATCATTGACTGCAG (eG*e[5mC]*eG*eG*eT*dG*dA*dT*d[5mC]*dA*dT*dT*dG*dA*d[5mC]*eT*eG*e[5mC]*eA*eG) the listed Percent inhibition of human CETP mRNA is 83

The recorded Percent inhibition of human CETP mRNA for ISIS 349448: 5-10-5 MOE gapmer CCGTATATGTATGTCCGCCC (e[5mC]*e[5mC]*eG*eT*eA*dT*dA*dT*dG*dT*dA*dT*dG*dT*d[5mC]*e[5mC]*eG*e[5mC]*e[5mC]*e[5mC]) is 53

So, ISIS 349470: 5-10-5 MOE gapmer GAGGTCAATGGCAGAGTCGA (antisense eG*eA*eG*eG*eT*d[5mC]*dA*dA*dT*dG*dG*d[5mC]*dA*dG*dA*eG*eT*e[5mC]*eG*eA) ? Its Percent inhibition of human CETP mRNA was 64

The value of Percent inhibition of human CETP mRNA measured for the substance ISIS 349511: 5-10-5 MOE gapmer CCCGACCTCCTTGGAGACTT (sugars from the 5' end e5 d10 e5, backbone and methylation of C not given here) turned out to be 74

get_value(item= ISIS 349450: 5-10-5 MOE gapmer GCAGTGGTGTGTAAGTGGCC (eG*e[5mC]*eA*eG*eT*dG*dG*dT*dG*dT*dG*dT*dA*dA*dG*eT*eG*eG*e[5mC]*e[5mC]) , readout=Percent inhibition of human CETP mRNA) returns 89

Percent inhibition of human CETP mRNA measured on ISIS 349476: 5-10-5 MOE gapmer CCTTCAGGACCAGCTTCAGG (e[5mC]*e[5mC]*eT*eT*e[5mC]*dA*dG*dG*dA*d[5mC]*d[5mC]*dA*dG*d[5mC]*dT*eT*e[5mC]*eA*eG*eG) = 49

* * *

# System: human CETP mRNA
# ASSAY INFO: Antisense inhibition of human CETP mRNA in SW872 liposarcoma cells (Example 1)
# Type: cell-based
# CONDITION DETAILS: 150 nM antisense oligonucleotide, lipofectin, ~24 hours, relative to untreated control cells
Strand notation (5' to 3'): a small letter for the sugar, then the base; units joined by * are phosphorothioate-linked, units joined directly phosphodiester-linked; [ ] holds rarer units or linkages, { } end groups; capitals alone tell only the bases. e = 2'-O-(2-methoxyethyl) (MOE); [5mC] = 5-methylcytosine; d = 2'-deoxy (DNA)
% inhibition vs 70%: at or above is 1, below is -1.

In: Check this substance for % inhibition at or above 70%: ISIS 349494: 5-10-5 MOE gapmer AGAATTGACCACGACTCCCT (eA*eG*eA*eA*eT*dT*dG*dA*d[5mC]*d[5mC]*dA*d[5mC]*dG*dA*d[5mC]*eT*e[5mC]*e[5mC]*e[5mC]*eT)
Out: -1

In: Could you please find out whether ISIS 349461: 5-10-5 MOE gapmer ATACTTGACTTGGCCAAGGA (eA*eT*eA*e[5mC]*eT*dT*dG*dA*d[5mC]*dT*dT*dG*dG*d[5mC]*d[5mC]*eA*eA*eG*eG*eA) has % inhibition that meets 70% or exceeds it?
Out: 1

In: Is % inhibition at least 70%? Consider ISIS 349507: 5-10-5 MOE gapmer TGATGATGTCGAAGAGGCTC (eT*eG*eA*eT*eG*dA*dT*dG*dT*d[5mC]*dG*dA*dA*dG*dA*eG*eG*e[5mC]*eT*e[5mC])
Out: -1

In: # bool: % inhibition of ISIS 349508: 5-10-5 MOE gapmer TCTCGAGTGATAATCTCAGG (eT*e[5mC]*eT*e[5mC]*eG*dA*dG*dT*dG*dA*dT*dA*dA*dT*d[5mC]*eT*e[5mC]*eA*eG*eG) >= 70%
Out: -1

In: hey, is % inhibition for this one >= 70%? ISIS 349451: 5-10-5 MOE gapmer GCAGCCAGCATGGTTATCAG (eG*e[5mC]*eA*eG*e[5mC]*d[5mC]*dA*dG*d[5mC]*dA*dT*dG*dG*dT*dT*eA*eT*e[5mC]*eA*eG)
Out: -1

In: // inclusive: % inhibition at least 70%? input: ISIS 349474: 5-10-5 MOE gapmer CGCTCCCCTTGGAGATGCAG (e[5mC]*eG*e[5mC]*eT*e[5mC]*d[5mC]*d[5mC]*d[5mC]*dT*dT*dG*dG*dA*dG*dA*eT*eG*e[5mC]*eA*eG)
Out: 1

In: # bool: % inhibition of ISIS 349445: 5-10-5 MOE gapmer CAGCAGGGTCTTCCTGGCCC (e[5mC]*eA*eG*e[5mC]*eA*dG*dG*dG*dT*d[5mC]*dT*dT*d[5mC]*d[5mC]*dT*eG*eG*e[5mC]*e[5mC]*e[5mC]) >= 70%
Out: -1

In: Tell me whether % inhibition is at least 70% here: ISIS 349512: 5-10-5 MOE gapmer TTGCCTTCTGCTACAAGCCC (sugars from the 5' end e5 d10 e5, backbone and methylation of C not given here)
Out: 1

In: Check the entry ISIS 349511: 5-10-5 MOE gapmer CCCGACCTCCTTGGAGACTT (sugars from the 5' end e5 d10 e5, backbone and methylation of C not given here) : does % inhibition equal or exceed 70%?
Out: -1

In: API: above_or_equal(metric=% inhibition, cutoff=70%) for item ISIS 349468: 5-10-5 MOE gapmer TCAATACCCAGCCACCAGGC (eT*e[5mC]*eA*eA*eT*dA*d[5mC]*d[5mC]*d[5mC]*dA*dG*d[5mC]*d[5mC]*dA*d[5mC]*e[5mC]*eA*eG*eG*e[5mC])
Out: -1

In: Say whether ISIS 349487: 5-10-5 MOE gapmer CCCATCAGGCTGAGCATGAG (e[5mC]*e[5mC]*e[5mC]*eA*eT*d[5mC]*dA*dG*dG*d[5mC]*dT*dG*dA*dG*d[5mC]*eA*eT*eG*eA*eG) shows % inhibition of 70% or more.
Out: 1

In: Threshold query (% inhibition >= 70%) on ISIS 349491: 5-10-5 MOE gapmer AGCCGCCGACAACCTCTTGG (eA*eG*e[5mC]*e[5mC]*eG*d[5mC]*d[5mC]*dG*dA*d[5mC]*dA*dA*d[5mC]*d[5mC]*dT*e[5mC]*eT*eT*eG*eG)
Out: -1

In: I'd appreciate it if you could say whether ISIS 349464: 5-10-5 MOE gapmer CTTCCACCAGCTCCACCTGG (e[5mC]*eT*eT*e[5mC]*e[5mC]*dA*d[5mC]*d[5mC]*dA*dG*d[5mC]*dT*d[5mC]*d[5mC]*dA*e[5mC]*e[5mC]*eT*eG*eG) has % inhibition at least equal to 70%.
Out: -1

In: Tell me whether % inhibition is at least 70% here: ISIS 349501: 5-10-5 MOE gapmer GCTGCTCTCAGTCAAGTTGG (eG*e[5mC]*eT*eG*e[5mC]*dT*d[5mC]*dT*d[5mC]*dA*dG*dT*d[5mC]*dA*dA*eG*eT*eT*eG*eG)
Out: -1

In: Is % inhibition at least 70%? Consider ISIS 349504: 5-10-5 MOE gapmer TGACCTCAGGGATGCCCACA (eT*eG*eA*e[5mC]*e[5mC]*dT*d[5mC]*dA*dG*dG*dG*dA*dT*dG*d[5mC]*e[5mC]*e[5mC]*eA*e[5mC]*eA)
Out: -1

In: Does the substance ISIS 349444: 5-10-5 MOE gapmer TCCTGGCCCCAGAGATTCAC (eT*e[5mC]*e[5mC]*eT*eG*dG*d[5mC]*d[5mC]*d[5mC]*d[5mC]*dA*dG*dA*dG*dA*eT*eT*e[5mC]*eA*e[5mC]) have recorded % inhibition that is 70% or more?
Out: -1

In: Does % inhibition meet or surpass 70% for ISIS 349497: 5-10-5 MOE gapmer CCTCTTCAAATGTGTAAGCT (e[5mC]*e[5mC]*eT*e[5mC]*eT*dT*d[5mC]*dA*dA*dA*dT*dG*dT*dG*dT*eA*eA*eG*e[5mC]*eT) ?
Out: 1

In: Reported % inhibition at or above 70%? ISIS 349506: 5-10-5 MOE gapmer CGCCTTTGCTGTTCATGAGG (e[5mC]*eG*e[5mC]*e[5mC]*eT*dT*dT*dG*d[5mC]*dT*dG*dT*dT*d[5mC]*dA*eT*eG*eA*eG*eG)
Out: 1

In: Dear colleague, could you confirm whether ISIS 349481: 5-10-5 MOE gapmer AGGTAGGAGGCTGTGATGAC (eA*eG*eG*eT*eA*dG*dG*dA*dG*dG*d[5mC]*dT*dG*dT*dG*eA*eT*eG*eA*e[5mC]) has % inhibition at or above 70%?
Out: -1
